Assay: Comparative pharmacokinetic test of the formulation in beagle dog, Experimental Example 8
Format: in vivo
Conditions: beagle, dog, plasma, po, 25 mg, 25 mg solution (po), per head, suspended in 2.5% HP-PCD, single dose, beagle dog plasma; read-out: Vz(terminal)/F
experimental.readout: Vd/F (L)
State the answer as a number, implicitly in L.

Return reported Vd/F; argument: C[C@@H]1CN(c2ccc(S(C)(=O)=O)cc2F)CCN1c1nccc(C(=O)NC2C3CC4CC2CC(O)(C4)C3)n1 (stereo partly shown) [chemical formula 1]
58.5

---

Assay: Water solubility / BCS classification of the compound of chemical formula 1
Assay type: physicochemical
Conditions: water
experimental.readout: solubility

Return reported solubility; argument: C[C@@H]1CN(c2ccc(S(C)(=O)=O)cc2F)CCN1c1nccc(C(=O)NC2C3CC4CC2CC(O)(C4)C3)n1 (stereo partly shown) [chemical formula 1]
≤ 1 µg/mL

---

Test: Comparative pharmacokinetic test of the formulation in beagle dog, Experimental Example 8
Format: in vivo
Settings: beagle, dog, plasma, po, 25 mg, 25 mg tablet (po), per head, single dose, beagle dog plasma
experimental.readout: AUC(0-t) (ng·h/mL)
State the answer as a number, implicitly in ng·h/mL.

Return reported AUC(0-t); argument: C[C@@H]1CN(c2ccc(S(C)(=O)=O)cc2F)CCN1c1nccc(C(=O)NC2C3CC4CC2CC(O)(C4)C3)n1 (stereo partly shown)
3260

---

Assay: Comparative pharmacokinetic test of the formulation in beagle dog, Experimental Example 8
Format: in vivo
Details: beagle, dog, plasma, po, 100 mg, CL(inf)/F, 100 mg tablet (po), per head, single dose, beagle dog plasma
experimental.readout: CL/F
Please make sure the unit comes right after the number.

Return reported CL/F; argument: C[C@@H]1CN(c2ccc(S(C)(=O)=O)cc2F)CCN1c1nccc(C(=O)NC2C3CC4CC2CC(O)(C4)C3)n1 (stereo partly shown)
12.8 L/h

---

Test: Comparative pharmacokinetic test of the formulation in beagle dog, Experimental Example 8
Format: in vivo
Settings: beagle, dog, plasma, po, 25 mg, CL(inf)/F, 25 mg tablet (po), per head, single dose, beagle dog plasma
experimental.readout: CL/F (L/h)
State the answer as a number, implicitly in L/h.

Return reported CL/F; argument: C[C@@H]1CN(c2ccc(S(C)(=O)=O)cc2F)CCN1c1nccc(C(=O)NC2C3CC4CC2CC(O)(C4)C3)n1 (stereo partly shown)
8.04

---

Assay: Comparative pharmacokinetic test of the formulation in beagle dog, Experimental Example 8
Assay type: in vivo
Settings: beagle, dog, plasma, po, 50 mg, CL(inf)/F, 50 mg tablet (po), per head, single dose, beagle dog plasma
experimental.readout: CL/F

Return reported CL/F; argument: C[C@@H]1CN(c2ccc(S(C)(=O)=O)cc2F)CCN1c1nccc(C(=O)NC2C3CC4CC2CC(O)(C4)C3)n1 (stereo partly shown) [chemical formula 1]
10.2 L/h

---

Assay: Comparative pharmacokinetic test of the formulation in beagle dog, Experimental Example 8
Assay type: in vivo
Details: beagle, dog, plasma, po, 100 mg, 100 mg tablet (po), per head, single dose, beagle dog plasma
Method: By applying the conditions of Preparation Example 10, tablets containing 25, 50, and 100 mg of the crystalline solid of chemical formula 1 as a pharmaceutical raw material were manufactured. An experiment was conducted to analyze the pharmacokinetic characteristics of the manufactured tablets after oral administration to a beagle dog. […]
experimental.readout: Tmax (h)
State the answer as a number, implicitly in h.

Return reported Tmax; argument: C[C@@H]1CN(c2ccc(S(C)(=O)=O)cc2F)CCN1c1nccc(C(=O)NC2C3CC4CC2CC(O)(C4)C3)n1 (stereo partly shown) [chemical formula 1]
1.75
